- System Tested: T1, orthogonal hCD122 receptor (hoRb), hCD122 with H133D and Y134F (human, UniProt P14784 27-550)
- T1 sequence: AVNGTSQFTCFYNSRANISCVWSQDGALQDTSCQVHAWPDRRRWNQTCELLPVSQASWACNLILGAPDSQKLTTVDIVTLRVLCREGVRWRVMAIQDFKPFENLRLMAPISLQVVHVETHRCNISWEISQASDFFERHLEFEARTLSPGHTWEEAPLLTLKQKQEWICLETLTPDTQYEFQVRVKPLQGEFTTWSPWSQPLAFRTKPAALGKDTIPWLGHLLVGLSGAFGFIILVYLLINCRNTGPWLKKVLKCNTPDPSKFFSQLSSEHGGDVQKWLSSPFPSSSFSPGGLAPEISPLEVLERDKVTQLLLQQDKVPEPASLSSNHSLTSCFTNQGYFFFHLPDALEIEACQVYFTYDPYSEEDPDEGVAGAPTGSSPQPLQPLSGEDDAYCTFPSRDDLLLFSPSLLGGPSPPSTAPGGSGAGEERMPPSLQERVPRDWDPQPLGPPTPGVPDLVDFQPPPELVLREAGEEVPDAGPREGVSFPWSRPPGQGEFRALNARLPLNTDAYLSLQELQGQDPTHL
- Protocol Details: cell-based or functional assay
Readout Type: NKL Ortho Proliferation Signal 1:50

{"Binder": "L18M, SQVLKA (ligand) APTSSSTKKTQLQLSQLMVLLKAILNGINNYKNPKLTRMLTFKFYMPKKATELKHLQCLEEELKPLEEVLNLAQSKNFHLRPRDLISNINVIVLELKGSETTFMCEYADETATIVEFLNRWITFCQSIISTLT", "Experimental Value": 22100}
{"Binder": "M39V, SQVLKA (ligand) APTSSSTKKTQLQLSQLLVLLKAILNGINNYKNPKLTRVLTFKFYMPKKATELKHLQCLEEELKPLEEVLNLAQSKNFHLRPRDLISNINVIVLELKGSETTFMCEYADETATIVEFLNRWITFCQSIISTLT", "Experimental Value": 15300}
{"Binder": "L18E, SQVLKA (ligand) APTSSSTKKTQLQLSQLEVLLKAILNGINNYKNPKLTRMLTFKFYMPKKATELKHLQCLEEELKPLEEVLNLAQSKNFHLRPRDLISNINVIVLELKGSETTFMCEYADETATIVEFLNRWITFCQSIISTLT", "Experimental Value": 8120}
{"Binder": "Q126I, SQVLKA (ligand) APTSSSTKKTQLQLSQLLVLLKAILNGINNYKNPKLTRMLTFKFYMPKKATELKHLQCLEEELKPLEEVLNLAQSKNFHLRPRDLISNINVIVLELKGSETTFMCEYADETATIVEFLNRWITFCISIISTLT", "Experimental Value": 16700}
{"Binder": "T3D, SQVLKA (ligand) APDSSSTKKTQLQLSQLLVLLKAILNGINNYKNPKLTRMLTFKFYMPKKATELKHLQCLEEELKPLEEVLNLAQSKNFHLRPRDLISNINVIVLELKGSETTFMCEYADETATIVEFLNRWITFCQSIISTLT", "Experimental Value": 27900}
{"Binder": "T3N, SQVLKA (ligand) APNSSSTKKTQLQLSQLLVLLKAILNGINNYKNPKLTRMLTFKFYMPKKATELKHLQCLEEELKPLEEVLNLAQSKNFHLRPRDLISNINVIVLELKGSETTFMCEYADETATIVEFLNRWITFCQSIISTLT", "Experimental Value": 31400}
{"Binder": "ΔT51, SQVLKA (ligand) APTSSSTKKTQLQLSQLLVLLKAILNGINNYKNPKLTRMLTFKFYMPKKAELKHLQCLEEELKPLEEVLNLAQSKNFHLRPRDLISNINVIVLELKGSETTFMCEYADETATIVEFLNRWITFCQSIISTLT", "Experimental Value": 7780}
{"Binder": "SQVLKV (ligand) APTSSSTKKTQLQLSQLLVLLKVILNGINNYKNPKLTRMLTFKFYMPKKATELKHLQCLEEELKPLEEVLNLAQSKNFHLRPRDLISNINVIVLELKGSETTFMCEYADETATIVEFLNRWITFCQSIISTLT", "Experimental Value": 29900}
{"Binder": "Q126S, SQVLKA (ligand) APTSSSTKKTQLQLSQLLVLLKAILNGINNYKNPKLTRMLTFKFYMPKKATELKHLQCLEEELKPLEEVLNLAQSKNFHLRPRDLISNINVIVLELKGSETTFMCEYADETATIVEFLNRWITFCSSIISTLT", "Experimental Value": 6310}
{"Binder": "SQVSKA (ligand) APTSSSTKKTQLQLSQLLVSLKAILNGINNYKNPKLTRMLTFKFYMPKKATELKHLQCLEEELKPLEEVLNLAQSKNFHLRPRDLISNINVIVLELKGSETTFMCEYADETATIVEFLNRWITFCQSIISTLT", "Experimental Value": 45000}
{"Binder": "T3R, SQVLKA (ligand) APRSSSTKKTQLQLSQLLVLLKAILNGINNYKNPKLTRMLTFKFYMPKKATELKHLQCLEEELKPLEEVLNLAQSKNFHLRPRDLISNINVIVLELKGSETTFMCEYADETATIVEFLNRWITFCQSIISTLT", "Experimental Value": 19300}
{"Binder": "SQVLKY (ligand) APTSSSTKKTQLQLSQLLVLLKYILNGINNYKNPKLTRMLTFKFYMPKKATELKHLQCLEEELKPLEEVLNLAQSKNFHLRPRDLISNINVIVLELKGSETTFMCEYADETATIVEFLNRWITFCQSIISTLT", "Experimental Value": 21900}
{"Binder": "SQVLVA (ligand) APTSSSTKKTQLQLSQLLVLLVAILNGINNYKNPKLTRMLTFKFYMPKKATELKHLQCLEEELKPLEEVLNLAQSKNFHLRPRDLISNINVIVLELKGSETTFMCEYADETATIVEFLNRWITFCQSIISTLT", "Experimental Value": 6590}
{"Binder": "Q126M, SQVLKA (ligand) APTSSSTKKTQLQLSQLLVLLKAILNGINNYKNPKLTRMLTFKFYMPKKATELKHLQCLEEELKPLEEVLNLAQSKNFHLRPRDLISNINVIVLELKGSETTFMCEYADETATIVEFLNRWITFCMSIISTLT", "Experimental Value": 9760}
